- target or system: full-length beta-Catenin (Uniprot ID P35222) (Homo sapiens, UniProt P35222)
- Construct: 10 nM full-length beta-Catenin (Uniprot ID P35222)
- Sequence (P35222 1-781): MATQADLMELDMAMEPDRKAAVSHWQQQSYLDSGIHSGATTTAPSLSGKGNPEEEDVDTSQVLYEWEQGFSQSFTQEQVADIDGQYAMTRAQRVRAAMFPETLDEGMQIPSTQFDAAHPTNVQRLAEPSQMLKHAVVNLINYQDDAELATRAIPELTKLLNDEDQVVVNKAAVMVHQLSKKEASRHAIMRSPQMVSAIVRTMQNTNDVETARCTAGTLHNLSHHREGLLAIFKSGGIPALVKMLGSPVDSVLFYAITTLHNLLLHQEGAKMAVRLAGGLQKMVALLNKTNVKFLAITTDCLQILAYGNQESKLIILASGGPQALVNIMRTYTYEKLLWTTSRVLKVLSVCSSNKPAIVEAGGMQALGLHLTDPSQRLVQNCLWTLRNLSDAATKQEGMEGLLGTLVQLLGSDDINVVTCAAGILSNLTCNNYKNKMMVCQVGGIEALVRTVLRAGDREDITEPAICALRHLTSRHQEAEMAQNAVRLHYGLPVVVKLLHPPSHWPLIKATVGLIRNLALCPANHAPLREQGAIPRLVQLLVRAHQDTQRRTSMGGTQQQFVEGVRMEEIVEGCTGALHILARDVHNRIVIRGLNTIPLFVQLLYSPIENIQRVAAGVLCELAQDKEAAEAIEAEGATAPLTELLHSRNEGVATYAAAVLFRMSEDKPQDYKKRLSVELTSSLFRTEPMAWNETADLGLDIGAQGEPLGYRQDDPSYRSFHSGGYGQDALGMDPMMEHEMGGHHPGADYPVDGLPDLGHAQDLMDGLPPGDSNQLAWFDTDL
- experimental protocol: Fluorescence polarization IC50 (beta-catenin / 5FAM-TCF4 10-53 competition)
- Format: binding
- condition label: fluorescence polarization; read-out: beta-Catenin FP IC50
IC50 overview
Give the value, in units of µM, as a plain number.

Use these answered entries as a reference point.
| compound | units | observed result |
| --- | --- | --- |
| CC[C@H](C)[C@@H]1NC(=O)[C@H](CC(=O)O)NC(=O)[C@]2(CC=CCCCC3(CCCC=CCCCCCC[C@@](C)(C(=O)N[C@@H](Cc4ccccc4)C(=O)N[C@@H](Cc4csc5ccccc45)C(=O)N[C@@H](CCC(N)=O)C(N)=O)NC(=O)[C@H](CCC(N)=O)NC(=O)[C@H](c4ccccc4)NC(=O)[C@H](C)NC(=O)[C@H](C)NC(=O)[C@H](CCC(=O)O)NC(=O)[C@H](CC(=O)O)NC3=O)NC1=O)CCCN2C(C)=O (stereo partly drawn) | µM | 5 |
| CC(=O)N1CCC[C@]12CC=CCCCC1(CCCC=CCCCOC(=O)N3CC[C@@](C(=O)N[C@@H](Cc4ccccc4Cl)C(=O)N[C@@H](Cc4csc5ccccc45)C(=O)N[C@H](CO)[C@@H](C)O)(C3)NC(=O)[C@H]([C@@H](C)O)NC(=O)[C@H](Cc3ccccc3)NC(=O)[C@H](C)NC(=O)[C@H](C)NC(=O)[C@H]([C@@H](C)O)NC(=O)[C@H](CC(=O)O)NC1=O)NC(=O)[C@H](CC(C)(C)C)NC(=O)[C@H](CC(=O)O)NC2=O (stereo partly drawn) | µM | 0.059 |

Field: next compound
For CC(=O)N1CCC[C@]12CC=CCCCC1(CCCC=CCCCOC(=O)N3CC[C@@](C(=O)N[C@@H](Cc4ccsc4)C(=O)N[C@@H](Cc4csc5ccccc45)C(=O)N[C@@H](CCC(N)=O)C(N)=O)(C3)NC(=O)[C@H](CC(N)=O)NC(=O)[C@H](Cc3ccccc3)NC(=O)[C@H](CCCCNC(C)C)NC(=O)[C@H](C)NC(=O)[C@H]([C@@H](C)O)NC(=O)[C@H](CC(N)=O)NC1=O)NC(=O)[C@H](CC(C)(C)C)NC(=O)[C@H](CC(=O)O)NC2=O (stereo partly drawn) the compound record lists IC50 as 0.285
